FYI, the data here is from patent US20260265195A1.

Molecular target: SARM1 (50-724) (Homo sapiens, UniProt Q6SZW1)
Construct: Purified SARM1 (50-724) with a final concentration of 2 nM
Sequence (Q6SZW1 50-724): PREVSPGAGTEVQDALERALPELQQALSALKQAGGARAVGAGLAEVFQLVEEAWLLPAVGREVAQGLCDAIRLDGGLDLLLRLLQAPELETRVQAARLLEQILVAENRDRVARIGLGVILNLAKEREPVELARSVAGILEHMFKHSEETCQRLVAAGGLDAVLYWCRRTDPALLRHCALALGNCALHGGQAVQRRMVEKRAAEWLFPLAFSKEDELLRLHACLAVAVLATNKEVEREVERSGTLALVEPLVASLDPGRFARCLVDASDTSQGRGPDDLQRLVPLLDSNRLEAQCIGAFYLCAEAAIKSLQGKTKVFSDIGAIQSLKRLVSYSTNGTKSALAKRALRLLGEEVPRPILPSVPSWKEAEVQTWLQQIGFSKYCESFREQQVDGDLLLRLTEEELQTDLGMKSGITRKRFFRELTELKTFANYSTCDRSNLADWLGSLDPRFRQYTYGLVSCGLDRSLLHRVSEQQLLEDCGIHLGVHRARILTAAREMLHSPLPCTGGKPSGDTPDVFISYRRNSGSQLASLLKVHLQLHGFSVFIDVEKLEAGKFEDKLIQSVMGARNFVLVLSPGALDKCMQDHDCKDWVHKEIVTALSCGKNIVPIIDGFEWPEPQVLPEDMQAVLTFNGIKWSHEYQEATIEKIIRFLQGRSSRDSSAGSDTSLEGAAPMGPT
Test: SARM1 (50-724) enzymatic assay (NMN-activated NAD+ hydrolysis, LC-MS/MS readout)
Type: biochemical
Settings: purified SARM1 (50-724) 2 nM, 200 μM NMN activator, 100 μM NAD+ substrate, 1 h at room temperature, read-out: IC50 (SARM1 inhibitory activity)
pIC50: −log10 of the molar value.
metric: pIC50

# get_value(readout='pIC50', item= Cc1ccnc(N(CCO)C(=O)c2nc3cc(C(F)(F)F)ccc3[nH]2)c1Cl [Compound 138] )
6.30 to 7.00

# get_value(readout='pIC50', item= Cc1c(Cl)cncc1N(CC(F)(F)CO)C(=O)c1nc2cc(C(F)(F)F)ccc2[nH]1 [Compound 133] )
≥ 7.00

# get_value(readout='pIC50', item= Cc1ccc2[nH]c(C(=O)N(CCN(C)C)C3CCCC3)nc2c1 [Compound 64] )
≤ 6.00

# get_value(readout='pIC50', item= O=C(c1nc2cc(C(F)(F)F)ccc2[nH]1)N(CCO)[C@@H]1CCCC[C@H]1OC(F)(F)F (racemic) [Compound 60] )
6.30 to 7.00

# get_value(readout='pIC50', item= O=C(c1nc2cc(C(F)(F)F)ccc2[nH]1)N(c1cccc(F)c1Cl)C1CCS(=O)(=O)C1 (racemic) [Compound 228] )
≥ 7.00

# get_value(readout='pIC50', item= Cc1ccc2[nH]c(C(=O)N(C)C3CCCCC3)c(CNc3ccccn3)c2c1 [Compound 91] )
6.30 to 7.00

# get_value(readout='pIC50', item= O=C(c1nc2cc(C(F)(F)F)ccc2[nH]1)N(CC1CNC1)c1cccc(Cl)c1Cl [Compound 114] )
6.30 to 7.00

# get_value(readout='pIC50', item= O=C(c1nc2cc(C(F)(F)F)ccc2[nH]1)N(CCOCCO)c1cccc(Cl)c1Cl [Compound 128] )
≥ 7.00

* * *

What IC50 was measured for each of the following?
Target: SARM1 (50-724) (Homo sapiens)
Construct: Purified SARM1 (50-724) with a final concentration of 2 nM
Assay: SARM1 (50-724) enzymatic assay (NMN-activated NAD+ hydrolysis, LC-MS/MS readout)
Conditions: purified SARM1 (50-724) 2 nM, 200 μM NMN activator, 100 μM NAD+ substrate, 1 h at room temperature, read-out: IC50 (SARM1 inhibitory activity)

# get_value(readout='IC50', item= Cc1ccc2[nH]c(C(=O)N(C)C3C[C@@H](C)O[C@@H](C)C3)c(CO)c2c1 (some centres unmarked) )
≥ 1 µM

# get_value(readout='IC50', item= `CS(=O)(=O)CCN(C(=O)c1nc2cc(C(F)(F)F)ccc2[nH]1)c1cccc(F)c1Cl` )
≤ 0.1 µM

# get_value(readout='IC50', item= Cc1ccc2[nH]c(C(=O)NC(C)CC(C)C)c(CNc3ccccn3)c2c1 (centres unmarked) )
0.501 to 1 µM

# get_value(readout='IC50', item= `CN(C(=O)c1nc2c(S(C)(=O)=O)cccc2[nH]1)C1CCCC1` )
≥ 1 µM

# get_value(readout='IC50', item= `CN(C(=O)c1[nH]ncc1CO)C1CCCC1` )
≥ 1 µM
